TARGET OF ASSAY: T1, human 5T4 oncofoetal antigen (human, UniProt Q13641 32-420)
T1 construct: whole, on cells; also called hu 5T4; human 5T4 antigen
T1 sequence (looked up): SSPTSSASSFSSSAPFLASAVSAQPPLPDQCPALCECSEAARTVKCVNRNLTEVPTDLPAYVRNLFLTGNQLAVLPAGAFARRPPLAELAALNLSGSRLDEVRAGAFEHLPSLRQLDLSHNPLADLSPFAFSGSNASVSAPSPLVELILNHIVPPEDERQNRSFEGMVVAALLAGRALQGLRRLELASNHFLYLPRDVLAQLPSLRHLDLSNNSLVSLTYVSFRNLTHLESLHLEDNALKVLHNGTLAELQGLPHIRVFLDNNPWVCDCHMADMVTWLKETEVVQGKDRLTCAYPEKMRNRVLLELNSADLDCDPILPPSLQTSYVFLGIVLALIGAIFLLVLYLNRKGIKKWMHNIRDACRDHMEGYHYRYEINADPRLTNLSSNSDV
PROCEDURE DETAILS: flow cytometry, CHOZN cells expressing hu 5T4
binders and their reported EC50

{"columns": ["BINDER", "EC50 / µg/mL"],
 "data": [
  ["chimeric anti-5T4 monoclonal antibody 841 (antibody, human IgG1, V domains shown) VH: QSLEESGGRLVTPGTPLTLTCKASGFSLSTYWMSWVRQAPGKGLEWIGIMLSYGNTVYANWAKGRFTISKTSSTTVDLKITSPTTEDTATYFCARGLYGGYPNYGVYDLWGQGTLVTVSS VL: DVVMTQTPASVEAAVGGTVTIKCQASQSISSYLSWYQQKPGQPPKLLIYAASNLASGVSSRFKGSRSGTEYTLTISDLESADAATYYCQCTDYGSNYVGAFGGGTEVVVK", 0.24],
  ["chimeric anti-5T4 monoclonal antibody 835 (antibody, human IgG1, V domains shown) VH: QSVEESGGRLVTPGTPLTLTCTVSGIDLSSGAMGWVRQAPGKGLEWIGLISSSPITYYANWARGRFTISKTSTTVDLKITSPTTADTATYFCARGYDDYGEIWFNIWGPGTLVTVSL VL: AIEMTQSPPSLSASVGETVRIRCLAGEDIYSSISWYQQKPGKPPTLLIYGASNLESGVPPRFSGSGSGTDYTLTIGGVQAEDAATYYCLGGWSYSSSLTFGAGTKVEIK", 0.17]
]}

Entry source: patent US20210317231A1
